- MEASUREMENT TARGET: ERβ (Homo sapiens, UniProt Q92731)
- Sequence (Q92731 248-510): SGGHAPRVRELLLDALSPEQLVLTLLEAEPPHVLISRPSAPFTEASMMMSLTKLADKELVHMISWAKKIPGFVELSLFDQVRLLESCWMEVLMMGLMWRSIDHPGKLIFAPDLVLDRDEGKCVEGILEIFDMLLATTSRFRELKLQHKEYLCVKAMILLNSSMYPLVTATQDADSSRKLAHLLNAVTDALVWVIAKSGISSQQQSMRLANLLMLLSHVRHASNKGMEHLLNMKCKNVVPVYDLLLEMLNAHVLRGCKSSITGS
- PROCEDURE SUMMARY: Yeast two-hybrid system-based assay (ERβ LBD/SRC1, α-galactosidase), agonist and antagonist mode
- Type: cell-based
- EXPERIMENTAL PARAMETERS: 10 μM; DMSO = 1
Structures can show the parent of a compound that is named as a salt.
ASSAY READOUT: Agonistic activities (10 μM), ERβ
Reply briefly: the number, and no unit.

**Query** Give its Agonistic activities (10 μM), ERβ value. Item: CN(C)C(=O)C(CCN1CCC(O)(c2ccc(Cl)cc2)CC1)(c1ccccc1)c1ccccc1 [Loperamide]
**Result** 0.910

**Query** I would be grateful if you could share the reported Agonistic activities (10 μM), ERβ for CC(C)C(=O)Nc1ccc([N+](=O)[O-])c(C(F)(F)F)c1 [Flutamide] .
**Result** 0.949

**Query** // query Agonistic activities (10 μM), ERβ value for entry `CC(C)(C#N)c1cc(Cn2cncn2)cc(C(C)(C)C#N)c1`
**Result** 1.011

**Query** Query (compound): CN(C)CCCN1c2ccccc2Sc2ccc(Cl)cc21 [Chlorpromazine HCl] ; field requested: Agonistic activities (10 μM), ERβ
**Result** 0.981

**Query** Name the recorded Agonistic activities (10 μM), ERβ for `CC(=O)OCC(CCn1cnc2cnc(N)nc21)COC(C)=O` .
**Result** 0.894

**Query** Which Agonistic activities (10 μM), ERβ value is on record for CC(=O)N1CCN(c2ccc(OCC3COC(Cn4ccnc4)(c4ccc(Cl)cc4Cl)O3)cc2)CC1 (centres unmarked) ?
**Result** 0.853

**Query** What Agonistic activities (10 μM), ERβ value was documented for this compound, CCC(C)n1ncn(-c2ccc(N3CCN(c4ccc(OCC5COC(Cn6cncn6)(c6ccc(Cl)cc6Cl)O5)cc4)CC3)cc2)c1=O (centres unmarked) ?
**Result** 1.890

**Query** Fill blank: measured Agonistic activities (10 μM), ERβ of the compound N[C@@H]1C[C@H]1c1ccccc1 (racemic) is ____.
**Result** 0.965
